- measurement.protocol: AUC (0 to infinity) in rat at 5 mg/kg, iv
- Assay type: ADME, organism-based
- Set-up: dose 5 mg/kg, route intravenous, time infinity
- measurement.conditions: in vivo
measured.attribute: AUC(0-inf) (ng·h/mL)

[
  {
    "chemical.structure": "Cl.O=C1c2ccccc2C(=O)c2c1cccc2-c1cnn(C2CCNCC2)c1",
    "output.unit": "ng·h/mL",
    "value.reported": 7610
  }
]

###

- measurement.protocol: Clearance in rat at 5 mg/kg, iv
- Assay type: ADME, organism-based
- measurement.conditions: in vivo

[
  {
    "chemical.structure": "Cl.O=C1c2ccccc2C(=O)c2c1cccc2-c1cnn(C2CCNCC2)c1",
    "clearance / mL/min/kg": 11.4
  }
]

These data points were gathered from ChEMBL document CHEMBL4330127.
